List of Km values.
# Study Target: T1, Abz-LPETGK(Dnp)-CONH2
# T1 chain: LPETGK
Non-standard residues stand in square brackets, D forms with d. No end group written: not given here. *: point of attachment. Dnp = O=[N+]([O-])c1ccc(*)c([N+](=O)[O-])c1; 2Abz = Nc1ccccc1C(=O)O
Your answer is read as µM, so omit the unit and give the number.

Incoming: For the protein wild-type S. aureus sortase A (protein) QAKPQIPKDKSKVAGYIEIPDADIKEPVYPGPATPEQLNRGVSFAEENESLDDQNISIAGHTFIDRPNYQFTNLKAAKKGSMVYFKVGNETRKYKMTSIRDVKPTDVEVLDEQKGKDKQLTLITCDDYNEKTGVWEKRKIFVATEVK , give its measured Km value.
Outgoing: 7600

Incoming: For the protein eSrtA(4S-9) (protein) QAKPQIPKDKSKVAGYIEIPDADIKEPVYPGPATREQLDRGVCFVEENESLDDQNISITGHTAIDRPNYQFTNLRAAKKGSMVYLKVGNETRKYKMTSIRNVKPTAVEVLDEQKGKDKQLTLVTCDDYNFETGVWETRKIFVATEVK , give its measured Km value.
Outgoing: 64.7

Incoming: For the protein evolved sortase A (eSrtA) (enzyme) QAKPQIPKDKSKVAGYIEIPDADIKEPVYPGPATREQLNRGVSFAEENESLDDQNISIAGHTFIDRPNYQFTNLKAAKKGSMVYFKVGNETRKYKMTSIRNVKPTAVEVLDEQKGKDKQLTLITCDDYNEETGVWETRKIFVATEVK , give its measured Km value.
Outgoing: 230

Incoming: For the protein eSrtA(2A-9) (protein) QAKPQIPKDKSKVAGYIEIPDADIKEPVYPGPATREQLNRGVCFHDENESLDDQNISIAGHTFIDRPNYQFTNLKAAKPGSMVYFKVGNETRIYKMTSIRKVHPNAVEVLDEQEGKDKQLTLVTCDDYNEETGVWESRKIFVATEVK , give its measured Km value.
Outgoing: 1270
